Species: Rattus norvegicus
Experimental details: Open TG-GATES - Regimen: Single
Assay type: toxicity, organism-based, Sprague-Dawley
Design: regimen Single, gender Male, age 6 weeks
Stated conditions: in vivo, po, 1000 mg/kg, 3 h, tissue Blood, route gavage, dose level High
For each entry below, report its Fbg value.
Numbers only, in mg/dL.

// below: answered compounds
- Compound smiles: "CN/C(=N/CCSCc1nc[nH]c1C)NC#N"
  Fbg [mg/dL]: 216.2
- Compound smiles: "CNC(=C[N+](=O)[O-])NCCSCc1ccc(CN(C)C)o1"
  Fbg [mg/dL]: 209
- Compound smiles: "COC(=O)C1=C(C)NC(C)=C(C(=O)OC)C1c1ccccc1[N+](=O)[O-]"
  Fbg [mg/dL]: 285.2
- Compound smiles: "O=C(OC[C@H]1O[C@@H](OC(=O)c2cc(O)c(O)c(OC(=O)c3cc(O)c(O)c(O)c3)c2)[C@H](OC(=O)c2cc(O)c(O)c(OC(=O)c3cc(O)c(O)c(O)c3)c2)[C@@H](OC(=O)c2cc(O)c(O)c(OC(=O)c3cc(O)c(O)c(O)c3)c2)[C@@H]1OC(=O)c1cc(O)c(O)c(OC(=O)c2cc(O)c(O)c(O)c2)c1)c1cc(O)c(O)c(OC(=O)c2cc(O)c(O)c(O)c2)c1"
  Fbg [mg/dL]: 221.2

Could you now consider this next compound?
Ask: Fbg for Cc1nnc2n1-c1ccc(Cl)cc1C(c1ccccc1Cl)=NC2 ?
Result: 277.8
